Source listed as patent US20240117047A1.

TARGET_OR_TEST_SYSTEM: T1, extracellular domain of human ROR1 (human, UniProt Q01973 30-406)
T1 construct: also called hROR1; hROR1 extracellular recombinant protein
T1 sequence (Q01973 30-406 limits assumed): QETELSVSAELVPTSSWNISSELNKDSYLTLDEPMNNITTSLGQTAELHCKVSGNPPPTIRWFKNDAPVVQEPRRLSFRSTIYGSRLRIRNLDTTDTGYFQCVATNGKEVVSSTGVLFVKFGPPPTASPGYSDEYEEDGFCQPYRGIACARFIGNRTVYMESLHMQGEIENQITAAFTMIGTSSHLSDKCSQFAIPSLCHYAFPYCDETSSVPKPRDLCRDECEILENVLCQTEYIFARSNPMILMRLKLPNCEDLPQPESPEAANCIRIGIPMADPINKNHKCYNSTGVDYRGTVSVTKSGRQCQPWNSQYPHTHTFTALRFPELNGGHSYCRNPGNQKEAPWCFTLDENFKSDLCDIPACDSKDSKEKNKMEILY
ASSAY_REMARKS: ELISA screening
PROPERTY_LABEL: binding result

BINDER: UC-105 (antibody, V domains shown, Mouse-derived anti-hROR1 mAb, detected with anti-mouse IgG) VH: EVKLVESGGGLVQPGGSRKLSCAASGFTFSSYGMHWIRQTPDKGLEWVAYISSNSDHIFYTDTVKGRFTISRDNAKNTLFLQMTSLRSEDTAMYYCASRMDYWGQGTSVTVSS VL: DIQMTQTTSSLSASLGDRVTISCRASQDISNHLNWYQQKPDGTVKLLIYYTSRLHSGVPSRFSGSGSGTDYSLTISNLEQGDIATYFCQQGSTLPYTFGGGTKLEIKR
PROPERTY_LABEL: binding result
TEST_VALUE: binds
--
BINDER: UC-102 (antibody, V domains shown, Mouse-derived anti-hROR1 mAb, detected with anti-mouse IgG; also called UC-102 mAb) VH: DVHLQESGPGLVKPSQSLSVTCTVTGYSITGSYSWNWIRQFPGNKLEWMGYIHSSGTTNYNPSLKSRISFTRDTSKNQLFLQLNSVTTEDTATYYCTRGFAYWGQGTLVTVSA VL: NIVMTQSPSSMSASLGDRITITCQATQDIVKNLNWYQQKPGKPPSFLIYYTTELAEGVPSRFSGSGSGSDYSLTISNLESEDFADYYCLQFYEFPPTFGAGTKLELKR
PROPERTY_LABEL: binding result
TEST_VALUE: binds
--
BINDER: UC-104 (antibody, V domains shown, Mouse-derived anti-hROR1 mAb, detected with anti-mouse IgG; also called UC-104 mAb) VH: EVQLLETGGGLVQPGGSRKLSCAASGFTFSNYGMHWVRQAPGKGLEWVAHISRYSDTIYYADAVKGRFTISRDNAKNTLFLQMTTLRSEDTAIYYCTSAMDYWGQGTSVTVSS VL: DIQMTQTTSSLSASLGDRVTISCRASQDISNYLNWFQQKPDGTIKLLIYYTSRLHSGVPSRFSGSGSGTDYSLTISNLEQEDIATYFCQQGNTLPFTFGSGTKLEIKR
PROPERTY_LABEL: binding result
TEST_VALUE: binds
